Would you mind telling me the reported Normal beats of each entry?
System: Canis familiaris
Test Summary: Antiarrhythmic effect in coronary artery ligated dogs model at a dose of 5 mg/kg, value noted at end dose.
Format: functional, Canis lupus familiaris, Heart
Kindly provide the numeric value in % only, without the unit symbol.

// field: Normal beats; key: Cl.OC(CCCN1CCCCC1)(c1ccccc1)c1ccccc1 [DIPHENIDOL HYDROCHLORIDE] ; value = 90

Normal beats reading for Cc1ccccc1C(O)(CCCN1C(C)CCCC1C)c1ccccc1.Cl (stereo not drawn) : 92

Briefly, Normal beats measured for CC1CCCC(C)N1CCCC(O)(c1ccccn1)c1ccccn1.Cl (stereo not drawn) : 90
